Data provenance is ChEMBL document CHEMBL1151697.

Reported pKi for target or system UniProt Q9H3N8, by entry.
Sequence (Q9H3N8 whole entry): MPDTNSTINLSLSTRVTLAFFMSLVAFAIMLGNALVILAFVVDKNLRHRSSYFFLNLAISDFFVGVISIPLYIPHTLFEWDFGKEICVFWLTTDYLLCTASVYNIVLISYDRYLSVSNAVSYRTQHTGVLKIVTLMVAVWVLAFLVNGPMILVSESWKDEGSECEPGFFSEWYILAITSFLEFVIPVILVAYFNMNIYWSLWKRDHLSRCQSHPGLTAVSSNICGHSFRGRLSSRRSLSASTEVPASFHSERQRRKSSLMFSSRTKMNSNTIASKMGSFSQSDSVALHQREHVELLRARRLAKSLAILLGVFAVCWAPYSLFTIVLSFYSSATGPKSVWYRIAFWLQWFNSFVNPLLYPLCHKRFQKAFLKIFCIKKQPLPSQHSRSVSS
In plain terms, pKi is the concentration in mol/L turned into minus its base-10 logarithm.

Some compounds with recorded pKi:
Annotate the compound `CCCCCNCc1ccc(-c2ccc(CNCCCCC)cc2)cc1` with its measured pKi.
5.19

Annotate the compound `CN(Cc1ccc(-c2ccc(CN(C)C3CCCCC3)cc2)cc1)C1CCCCC1` with its measured pKi.
5.19

Supply pKi value. Item: `c1cc(-c2ccc(CN3CCCCC3)cc2)ccc1CN1CCCCC1`
4.60

Please turn your attention to the following entry.
Respond only with pKi recorded for CC1CC(C)CN(Cc2ccc(-c3ccc(CN4CC(C)CC(C)C4)cc3)cc2)C1 (centres undefined)
4.86
